- Test system: Danio rerio embryo/larva
- Assay explanation: max % larvae generally abnormal across tested concentrations; higher = more toxic; extreme values may be limits of the assay
- Settings: exposure: 6-8 hpf to 5 dpf, scored at 6 dpf
Reported max % larvae generally abnormal across tested concentrations by item:
Attribute measured: max % larvae generally abnormal across tested concentrations (%)

>>> readout_value("FC(F)(F)C(F)(F)C(F)(F)C(F)(F)CCI [1H,1H,2H,2H-Perfluorohexyl iodide] (max tested concentration (log10 uM): 2)")
8.33
>>> readout_value("NC(=O)C(F)(F)C(F)(F)C(F)(F)C(F)(F)F [Nonafluoropentanamide] (max tested concentration (log10 uM): 2)")
0
>>> readout_value("CCOC(=O)CC(=O)C(F)(F)C(F)(F)F [Ethyl pentafluoropropionyl acetate] (max tested concentration (log10 uM): 2)")
0
>>> readout_value("NC(=O)C(F)(F)C(F)(F)F [Pentafluoropropionamide] (max tested concentration (log10 uM): 2)")
0
>>> readout_value("O=C(O)C=CC(F)(C(F)(F)F)C(F)(F)F [3-(Perfluoroisopropyl)-2-propenoic acid] (max tested concentration (log10 uM): 2)")
16.7
>>> readout_value("O=C(Cl)C(F)(F)C(F)(F)C(F)(F)C(F)(F)C(F)(F)C(F)(F)F [Perfluoroheptanoyl chloride] (max tested concentration (log10 uM): 2)")
16.7

----------
- Tested on: Danio rerio embryo/larva
- Assay explanation: max % larvae with any abnormality across tested concentrations; max tested concentration (log10 uM): 2; higher = more toxic; extreme values may be limits of the assay
- Settings: exposure: 6-8 hpf to 5 dpf, scored at 6 dpf
Attribute measured: max % larvae (%)

>>> readout_value("O=C(CC(=O)C(F)(F)F)C(F)(F)F")
0
>>> readout_value("O=C(O)C(F)(F)C(F)(F)C(F)(F)C(F)(F)C(F)(F)C(F)(F)C(F)(F)C(F)(F)Cl")
100
>>> readout_value("FC(F)(Br)C(F)(F)C(F)(F)C(F)(F)C(F)(F)C(F)(F)Br")
4.17
>>> readout_value("O=C(Cl)C(F)(F)C(F)(F)C(F)(F)C(F)(F)C(F)(F)C(F)(F)C(F)(F)C(F)(F)F [Perfluorononanoyl chloride]")
100
>>> readout_value("O=C(O)C(F)(F)C(F)(F)OC(F)(F)F")
16.7
>>> readout_value("C[N+](C)(C)CCCNS(=O)(=O)C(F)(F)C(F)(F)C(F)(F)C(F)(F)C(F)(F)C(F)(F)C(F)(F)C(F)(F)F")
100
>>> readout_value("CCOC(=O)CC(=O)C(F)(F)C(F)(F)F [Ethyl pentafluoropropionyl acetate]")
0
>>> readout_value("CC(C)(C)C(=O)CC(=O)C(F)(F)C(F)(F)C(F)(F)F")
100
>>> readout_value("OCC(F)(F)C(F)(F)C(F)(F)F")
8.33
>>> readout_value("O=C(O)C(F)(F)C(F)(F)C(F)(F)C(F)(F)F")
25
>>> readout_value("FC(F)(I)C(F)(F)C(F)(F)C(F)(F)C(F)(F)C(F)(F)I")
100
>>> readout_value("FC(F)(I)C(F)(F)C(F)(F)C(F)(F)I")
70.8
>>> readout_value("O=C(O)CCC(F)(F)C(F)(F)C(F)(F)C(F)(F)C(F)(F)F")
100
>>> readout_value("OCCC(F)(F)C(F)(F)C(F)(F)C(F)(F)C(F)(F)C(F)(F)C(F)(F)C(F)(F)F")
58.3
>>> readout_value("O=C(O)C(F)(F)C(F)(F)C(F)(F)C(F)(F)C(=O)O")
0
>>> readout_value("FC(F)(F)COC(OCC(F)(F)F)OCC(F)(F)F")
0
